- Tested on: 201T
- Procedure text: relative viability (nuclei count vs DMSO), 5 days (fraction); higher = more cells survive
- Protocol conditions: first compound 0.08 µM
Experimental endpoint: relative viability
Respond using a number only.

Consider the reported relative viability for these molecules:
Cc1cnc(-c2cnc(NCCNc3ccc(C#N)cn3)nc2-c2ccc(Cl)cc2Cl)[nH]1 + CC(C)C[C@H](NC(=O)[C@H](Cc1ccccc1)NC(=O)c1cnccn1)B(O)O [Bortezomib] (partner 0.002 µM) = 1.12
O=c1[nH]c2ccccc2n1C1CCN(CCCC(c2ccc(F)cc2)c2ccc(F)cc2)CC1 [Pimozide] + CC(C)C[C@H](NC(=O)[C@H](Cc1ccccc1)NC(=O)c1cnccn1)B(O)O [Bortezomib] (partner 0.002 µM) = 1.07
O=c1[nH]c2ccccc2n1C1CCN(CCCC(c2ccc(F)cc2)c2ccc(F)cc2)CC1 [Pimozide] + CCNC(=O)c1noc(-c2cc(C(C)C)c(O)cc2O)c1-c1ccc(CN2CCOCC2)cc1 [Luminespib] (partner 0.01 µM) = 1.05

For the molecule Cc1cnc(-c2cnc(NCCNc3ccc(C#N)cn3)nc2-c2ccc(Cl)cc2Cl)[nH]1 + C[C@]1(O)C[C@@H](c2nc(-c3ccc4ccc(-c5ccccc5)nc4c3)c3c(N)nccn32)C1 [Linsitinib] (partner 1 µM) , what relative viability is on record?
1.03

---

- System: SW 900
- Procedure text: relative viability (nuclei count vs DMSO), 5 days (fraction); higher = more cells survive
- Protocol conditions: first compound 8 µM
Experimental endpoint: relative viability

O=c1[nH]c2ccccc2n1C1CCN(CCCC(c2ccc(F)cc2)c2ccc(F)cc2)CC1 [Pimozide] + COc1cccc2cc(-c3nc([C@H]4CC[C@H](C(=O)O)CC4)n4ncnc(N)c34)[nH]c12 [OSI-027] (partner 0.5 µM) = 0.384
O=c1[nH]c2ccccc2n1C1CCN(CCCC(c2ccc(F)cc2)c2ccc(F)cc2)CC1 [Pimozide] + COc1cc2c(Oc3ccc(NC(=O)C4(C(=O)Nc5ccc(F)cc5)CC4)cc3F)ccnc2cc1OCCCN1CCOCC1 [Foretinib] (partner 0.25 µM) = 1.03

For the compound O=c1[nH]c2ccccc2n1C1CCN(CCCC(c2ccc(F)cc2)c2ccc(F)cc2)CC1 [Pimozide] + O=C(c1cc(Cc2n[nH]c(=O)c3ccccc23)ccc1F)N1CCN(C(=O)C2CC2)CC1 [Olaparib] (partner 8 µM) , what relative viability is on record?
0.892

---

- System: NCI-H2009
- Procedure text: relative viability (nuclei count vs DMSO), 5 days (fraction); higher = more cells survive
- Protocol conditions: first compound 0.006325 µM
Each entry below carries its recorded relative viability.
Respond using a number only.

For the compound CC(=O)O[C@@]12CO[C@@H]1C[C@H](O)[C@@]1(C)C(=O)[C@H](O)C3=C(C)[C@@H](OC(=O)[C@H](O)[C@@H](NC(=O)OC(C)(C)C)c4ccccc4)C[C@@](O)([C@@H](OC(=O)c4ccccc4)[C@H]21)C3(C)C [Docetaxel] + C[C@]1(O)C[C@@H](c2nc(-c3ccc4ccc(-c5ccccc5)nc4c3)c3c(N)nccn32)C1 [Linsitinib] (partner 1 µM) , what relative viability is on record?
0.522

For the compound CC(=O)O[C@@]12CO[C@@H]1C[C@H](O)[C@@]1(C)C(=O)[C@H](O)C3=C(C)[C@@H](OC(=O)[C@H](O)[C@@H](NC(=O)OC(C)(C)C)c4ccccc4)C[C@@](O)([C@@H](OC(=O)c4ccccc4)[C@H]21)C3(C)C [Docetaxel] + CC1(C)CCC(c2ccc(Cl)cc2)=C(CN2CCN(c3ccc(C(=O)NS(=O)(=O)c4ccc(N[C@H](CCN5CCOCC5)CSc5ccccc5)c(S(=O)(=O)C(F)(F)F)c4)cc3)CC2)C1 [Navitoclax] (partner 0.5 µM) , what relative viability is on record?
0.575

For the compound CC(=O)O[C@@]12CO[C@@H]1C[C@H](O)[C@@]1(C)C(=O)[C@H](O)C3=C(C)[C@@H](OC(=O)[C@H](O)[C@@H](NC(=O)OC(C)(C)C)c4ccccc4)C[C@@](O)([C@@H](OC(=O)c4ccccc4)[C@H]21)C3(C)C [Docetaxel] + C[C@@H](Oc1cc(-c2cnn(C3CCNCC3)c2)cnc1N)c1c(Cl)ccc(F)c1Cl [Crizotinib] (partner 1 µM) , what relative viability is on record?
0.252

Reference for the values: the supplement of paper PMC10307832
